- ASSAY_SUMMARY: in vitro
- CONDITIONS_USED: African monkey
Catalogue of CC50 readings, one per entry.
PARAMETER_MEASURED: CC50

compound=CC(C)C[C@H](NC(=O)c1ccc(-c2ccc3c(cnn3C)c2)cc1)C(=O)N[C@H](C#N)C[C@@H]1CCNC1=O result="> 100 µM"
compound="CC(C)C[C@H](NC(=O)c1ccc(-c2ccc3cnn(C)c3c2)cc1Cl)C(=O)N[C@H](C#N)C[C@@H]1CCNC1=O [18q]" result="77.4 µM"
compound="CC(C)C[C@H](NC(=O)c1ccc(-c2ccc3c(cnn3C)c2)cc1Cl)C(=O)N[C@H](C#N)C[C@@H]1CCNC1=O [18o]" result="83.5 µM"
compound="COc1ccc(-c2ccc(C(=O)N[C@@H](CC3CCCCC3)C(=O)N[C@H](C#N)C[C@@H]3CCNC3=O)c(Cl)c2)cc1 [23c]" result="> 100 µM"
compound=COc1cccc(-c2ccc(C(=O)N[C@@H](CC(C)C)C(=O)N[C@H](C#N)C[C@@H]3CCNC3=O)cc2)c1 result="> 100 µM"
compound="CC(C)C[C@H](NC(=O)c1ccc(-c2cccc3nn(C)cc23)cc1F)C(=O)N[C@H](C#N)C[C@@H]1CCNC1=O [18a]" result="> 100 µM"
compound="COc1cccc(-c2ccc(C(=O)N[C@@H](CC3CCCCC3)C(=O)N[C@H](C#N)C[C@@H]3CCNC3=O)c(Cl)c2)c1 [23d]" result="> 100 µM"
compound="CC(C)(C)[C@H](NC(=O)C(F)(F)F)C(=O)N1C[C@H]2[C@@H]([C@H]1C(=O)N[C@H](C#N)C[C@@H]1CCNC1=O)C2(C)C [nirmatrelvir, reference compound]" result="> 100 µM"
compound="CC(C)C[C@H](NC(=O)c1ccc(-c2cccc3nn(C)cc23)cc1Cl)C(=O)N[C@H](C#N)C[C@@H]1CCNC1=O [18p]" result="> 100 µM"
compound="COc1ccc(-c2ccc(C(=O)N3C[C@H]4[C@@H]([C@H]3C(=O)N[C@H](C#N)C[C@@H]3CCNC3=O)C4(C)C)c(Cl)c2)cc1 [22e]" result="> 100 µM"
compound="COc1cccc(-c2ccc(C(=O)N[C@@H](CC(C)C)C(=O)N[C@H](C#N)C[C@@H]3CCNC3=O)c(Cl)c2)c1 [18n]" result="> 100 µM"
compound="COc1cccc(-c2ccc(C(=O)N3C[C@H]4[C@@H]([C@H]3C(=O)N[C@H](C#N)C[C@@H]3CCNC3=O)C4(C)C)c(Cl)c2)c1 [22f]" result="> 100 µM"
compound="COc1ccc(-c2ccc(C(=O)N[C@@H](CC(C)C)C(=O)N[C@H](C#N)C[C@@H]3CCNC3=O)c(C)c2)cc1 [18k]" result="> 100 µM"
compound="CC(C)C[C@H](NC(=O)c1ccc(-c2ccc3c(cnn3C)c2)cc1F)C(=O)N[C@H](C#N)C[C@@H]1CCNC1=O [18c]" result="> 100 µM"
compound=COc1ccc(-c2ccc(C(=O)N[C@@H](CC(C)C)C(=O)N[C@H](C#N)C[C@@H]3CCNC3=O)cc2)cc1OC result="> 100 µM"
compound="COc1ccc(-c2ccc(C(=O)N[C@@H](CC(C)C)C(=O)N[C@H](C#N)C[C@@H]3CCNC3=O)c(F)c2)cc1 [18b]" result="51.6 µM"
compound="COc1ccc(-c2ccc(C(=O)N[C@@H](CC(C)C)C(=O)N[C@H](C#N)C[C@@H]3CCNC3=O)c(Cl)c2)cc1 [18r]" result="40.1 µM"
compound=CC(C)C[C@H](NC(=O)c1ccc(-c2cccc3nn(C)cc23)cc1)C(=O)N[C@H](C#N)C[C@@H]1CCNC1=O result="> 100 µM"
compound="COc1ccc(-c2ccc(C(=O)N[C@@H](CC(C)C)C(=O)N[C@H](C#N)C[C@@H]3CCNC3=O)c(C(F)(F)F)c2)cc1 [18m]" result="70.6 µM"

The reported measurements were obtained from paper PMC12516390.
